- tested.on: Human immunodeficiency virus type 1 reverse transcriptase (Human immunodeficiency virus 1, UniProt Q72547)
- assay.name: Competitive inhibition of C-Terminal histidine-tagged wild type heterodimeric HIV-1 reverse transcriptase p66/p51 assessed as inhibition of dTTP incorporation after 15 mins by PAGE
measured.attribute: IC50

Query block: Read the entry Cc1cn([C@H]2C=C[C@@H](COP(=O)(O)OP(=O)(O)OP(=O)(O)O)O2)c(=O)[nH]c1=O [STAVUDINE TRIPHOSPHATE] and write its reported IC50.
Result block: 13000 nM

Query block: Fill in IC50 for record `Cc1cc(C#N)cc(C)c1Oc1ccnc(Nc2ccc(C#N)cc2)n1`
Result block: 13 nM

Query block: In one line, give reported IC50 of the entry `Cc1cc(C#CCOCCOCCOCCOCCOCC#Cc2cn([C@H]3C=C[C@@H](COP(=O)(O)OP(=O)(O)OP(=O)(O)O)O3)c(=O)[nH]c2=O)cc(C)c1Oc1ccnc(Nc2ccc(C#N)cc2)n1` .
Result block: 3 nM

Query block: Tell us which IC50 value is on record for `C#CCOCCOCCOCCOCCOCC#Cc1cc(C)c(Oc2ccnc(Nc3ccc(C#N)cc3)n2)c(C)c1`
Result block: 122 nM
